These entries and their values trace back to paper PMC3983391.

tested on: human tumor cell line (HTCL) panel (A549, KB, KBvin, DU145); experiment: SRB antiproliferative activity, ranges over the HTCL panel; format: cell-based; conditions: read-out: GI50 range over HTCL panel
GI50 values for the molecules below.

The following molecules have reported results that may help.
{"compoundStructureString": "COc1ccc2c(c1)CCN2c1nc(Cl)nc2ccccc12", "result": "170 to 320 nM"}
{"compoundStructureString": "Cc1ccc2c(c1)CCCN2c1nc(C)nc2ccccc12", "result": "169 to 211 nM"}
{"compoundStructureString": "COc1ccc2c(c1)NC(=O)CN2c1nc(C)nc2ccccc12", "result": "1.9 to 3.2 nM"}

Q: For the molecule `COc1ccc2c(c1)CCCCN2c1nc(C)nc2ccccc12` , report GI50.
A: 18 to 21 nM

Q: For the molecule `COc1ccc2c(c1)C(=O)CCN2c1nc(C)nc2ccccc12` , report GI50.
A: 19 to 24 nM

Q: For the molecule `COc1ccc2c(c1)OCCN2c1nc(C)nc2ccccc12` , report GI50.
A: 153 to 211 nM

Q: For the molecule `COc1ccc2c(c1)C(=O)CCN2c1nc(Cl)nc2ccccc12` , report GI50.
A: 27 to 33 nM

Q: For the molecule `COc1ccc2c(c1)CCN2c1nc(C)nc2ccccc12` , report GI50.
A: 170 to 320 nM

Q: For the molecule `Cc1ccc2c(c1)CCCN2c1nc(Cl)nc2ccccc12` , report GI50.
A: 43 to 57 nM

Q: For the molecule `COc1ccc2c(c1)N(C)C(=O)CN2c1nc(C)nc2ccccc12` , report GI50.
A: 17 to 25 nM

Q: For the molecule `COc1ccc2c(c1)CCCN(c1nc(Cl)nc3ccccc13)C2` , report GI50.
A: 5450 to 19600 nM

###

experiment: Toxicity in the nude mouse MCF7 xenograft study; conditions: nude mice, 4 mg/kg i.v., Q3D × 6; dead/total
death values for the molecules below.

The following molecules have reported results that may help.
{"compoundStructureString": "COc1ccc2c(c1)CCCN2c1nc(Cl)nc2ccccc12", "death": "0/5"}
{"compoundStructureString": "COc1ccc2c(c1)NC(=O)CN2c1nc(C)nc2ccccc12", "death": "7/7"}
{"compoundStructureString": "COc1ccc2c(c1)N(C)C(=O)CN2c1nc(C)nc2ccccc12", "death": "0/7"}

Now for another entry.
Q: For the molecule `COc1ccc2c(c1)CCCN2c1nc(C)nc2ccccc12` , report death.
A: 1/6
